The measured values listed here are drawn from ChEMBL document CHEMBL1201862.

# Tested on: NCI-H460
# PROTOCOL: NCI tumour cell line growth inhibition, 48 h
Active and inactive are the calls of the source. Cut-off read from the data, not from the text of the source: active = GI50 up to about 1.1 µM and inactive = higher.
Documented GI50 across a set of compounds

{"columns": ["COMPOUND", "RESULT"],
 "data": [
  ["N#Cc1c(/C=C/c2ccccc2)c2c([nH]c1=S)CCCCC2", "4.9 µM (inactive)"],
  ["NC(=O)c1ncn(CCN2CCN(C(=O)NCCCCCCNC(=O)N3CCN(CCn4cnc(C(N)=O)c4N)CC3)CC2)c1N", "> 100 µM (inactive)"],
  ["COc1cc(C[S+]2CCCC2)c(SC)cc1C[S+]1CCCC1", "> 100 µM (inactive)"],
  ["CCOC(=O)N1c2c(c3ccccc3n2C(=O)OCC)C(=O)C(OC)N1C(=O)OCC (stereo not given)", "36.1 µM (inactive)"]
]}

# evaluate next
Entry `C[Si](C)(C)[C@@]1([Se]c2ccccc2)CC[C@@H]1C(=O)c1ccccc1` ; assay system NCI-H460; GI50 recorded at 98.9 µM (inactive)
